Please go through the items and note down their viability at 28.5 h, 10 µM.
Experiment: in vitro
Settings: human, hela cells, % viability
Give the value in % but do not write % after it.

Item under review: CC(=O)Nc1ccc(S(=O)(=O)c2cc(O)ccc2O)cc1 [CBK261372] . Reported viability at 28.5 h, 10 µM?
85.9

Item under review: COc1ccc(-c2cn(-c3cc(Cl)ccc3C)nn2)cc1 [CBK113023] . Reported viability at 28.5 h, 10 µM?
58.6

Item under review: O=C(Nc1cccnc1)c1cc(S(=O)(=O)N2CCOCC2)ccc1Cl [CBK262099] . Reported viability at 28.5 h, 10 µM?
84.7

Item under review: CC(=O)Nc1ccc(-c2ccc(C(=O)NC3CC3)cn2)cc1 [CBK158854] . Reported viability at 28.5 h, 10 µM?
84.9

Item under review: COc1ccc(C(=O)N2CCC3(CCN(C(=O)Cc4cc(C)no4)C3)C2)cc1OC (stereo not shown) [CBK131784] . Reported viability at 28.5 h, 10 µM?
106

Item under review: O=C1CC(N2CCN(Cc3ccc4c(c3)OCO4)CC2)C(=O)N1c1ccc(Cl)cc1 (stereo not shown) [CBK074402] . Reported viability at 28.5 h, 10 µM?
103

Item under review: O=C(Nc1ccc(Oc2ncccn2)cc1)c1csc(-c2ccccc2)n1 [CBK298324] . Reported viability at 28.5 h, 10 µM?
85.5

Item under review: Cc1ccc(S(=O)(=O)N2C(=O)CCC2C(=O)O/N=C(\N)c2cccnc2)cc1 (stereo not shown) [CBK266864] . Reported viability at 28.5 h, 10 µM?
111

Item under review: O=C(N/N=C/c1ccc(OC(=O)c2ccc([N+](=O)[O-])cc2)cc1)c1cccnc1 [CBK262146] . Reported viability at 28.5 h, 10 µM?
101

Item under review: COc1ccc(-n2c(SCCCN3C(=O)c4cccc5cccc(c45)C3=O)nnc2-c2ccncc2)cc1 [CBK269123] . Reported viability at 28.5 h, 10 µM?
94.2

Item under review: CCOC(=O)C1=C(C(=O)OCC)SC(=C2C(=S)C(C)(C)N(C(=O)c3ccc4ccccc4c3)c3ccccc32)S1 [CBK261643] . Reported viability at 28.5 h, 10 µM?
103

Item under review: Cc1ccc(S(=O)(=O)NC[C@H]2O[C@@H](CC(=O)N3CCCC3)[C@H](O)[C@@H]2O)cc1 [CBK288910] . Reported viability at 28.5 h, 10 µM?
112

Item under review: COc1ccc(C2(C(=O)NCCCN3CCN(C)CC3)CC2)cc1 [CBK149822] . Reported viability at 28.5 h, 10 µM?
101

Item under review: CC(=O)Nc1ccccc1/C=C/c1ccc2c(C)cc(C)c(O)c2n1 [CBK261937] . Reported viability at 28.5 h, 10 µM?
106

Item under review: Cc1ccc(CS(=O)(=O)N2CCN(CCO)C(C)C2)c(F)c1 (stereo not shown) [CBK304702] . Reported viability at 28.5 h, 10 µM?
105

Item under review: N#CC1=C(N)Oc2cc(O)ccc2C1c1ccccc1 (stereo not shown) [CBK219303] . Reported viability at 28.5 h, 10 µM?
90.3

Item under review: CCCCSc1nc(N)cc(N2CCC(N3CCOC3=O)CC2)n1 [CBK306974] . Reported viability at 28.5 h, 10 µM?
82.1

Item under review: Cc1c(OCc2cnn(-c3ccccc3)c2)ccc(-c2n[nH]c(C(F)(F)F)c2-c2ccccc2)c1O [CBK264962] . Reported viability at 28.5 h, 10 µM?
104

Item under review: OC1(c2cccnc2)C2CCCC1CN(Cc1cccc(F)c1F)C2 (stereo not shown) [CBK285205] . Reported viability at 28.5 h, 10 µM?
88.1

Item under review: Nc1nonc1-n1cc(CN2CCCCC2)nn1 [CBK307044] . Reported viability at 28.5 h, 10 µM?
97.1

Item under review: CC(C)c1cc(C(=O)N2C[C@H](C)N(Cc3ccco3)C[C@@H]2C)on1 [CBK283053] . Reported viability at 28.5 h, 10 µM?
90.9

Item under review: Cc1nc2nc(N)nn2c(C)c1CCC(=O)NCc1ccccc1F [CBK305860] . Reported viability at 28.5 h, 10 µM?
77.6

Item under review: COc1cccc(NC(=O)c2cc(-c3ccc(C(=O)N4CCOCC4)cc3)cnc2N)c1 [CBK160203] . Reported viability at 28.5 h, 10 µM?
89.4

Item under review: CNC(=O)CSc1nccnc1N1CCCC1 [CBK107748] . Reported viability at 28.5 h, 10 µM?
93.6

Item under review: CN1CCN(C(c2ccccc2)C(O)C(=O)c2c[nH]c3ccccc23)CC1 (stereo not shown) [CBK267823] . Reported viability at 28.5 h, 10 µM?
103

Item under review: O=C(NCc1ccc(OC(F)(F)F)cc1)c1cnoc1-c1ccc(Br)cc1 [CBK154885] . Reported viability at 28.5 h, 10 µM?
100

Item under review: Clc1nc2ccccc2nc1N1CCNCC1 [CBK003880] . Reported viability at 28.5 h, 10 µM?
96

Item under review: COc1ccc(C(=O)CN2CCN(CCN3C(=O)c4cccc5cccc(c45)C3=O)CC2)cc1 [CBK074628] . Reported viability at 28.5 h, 10 µM?
75.7

Item under review: COc1ccccc1-c1cccc(C2CCCN(C(=O)Cc3c[nH]c4ccccc34)C2)n1 (stereo not shown) [CBK286143] . Reported viability at 28.5 h, 10 µM?
100

Item under review: CCN(CC)CCCNC(=O)N(CCC#N)C1CCCCC1 [CBK156377] . Reported viability at 28.5 h, 10 µM?
95

Item under review: CCN(CC(=O)Nc1c(F)cccc1F)S(=O)(=O)c1cccc(C#N)c1 [CBK306197] . Reported viability at 28.5 h, 10 µM?
85.4

Item under review: NC(=O)c1ccc(-c2ccc(/C=C3/C(=O)NN(c4ccc(F)cc4)C3=O)o2)cc1 [CBK098345] . Reported viability at 28.5 h, 10 µM?
89.9

Item under review: CC1CCCCN1Cc1nc2c(c(=O)n(C)c(=O)n2C)n1Cc1ccccc1 (stereo not shown) [CBK269203] . Reported viability at 28.5 h, 10 µM?
105

Item under review: CCONC(=O)c1cc(-c2ccccc2C)nc2c1cnn2C(C)C [CBK304048] . Reported viability at 28.5 h, 10 µM?
95.5

Item under review: c1ccc2c3c([nH]c2c1)C12CCN(CC1)C(C1CCOC1)N2CC3 (stereo not shown) [CBK284433] . Reported viability at 28.5 h, 10 µM?
88.2

Item under review: O=C(CN1C(=O)c2ccccc2C1=O)Nc1cc(C(=O)O)cc(C(=O)O)c1 [CBK262024] . Reported viability at 28.5 h, 10 µM?
102

Item under review: O=C(c1ccco1)N1CCN(c2cncc(-c3cc4ccccc4o3)n2)CC1 [CBK066044] . Reported viability at 28.5 h, 10 µM?
101

* * *

Experiment: in vitro
Conditions: human, hela cells, % viability
Please go through the items and note down their viability at 28.5 h, 10 µM.
Give the value in % but do not write % after it.

Item under review: Cc1nc(C)n(CC2CCCN(c3ncnc4ccsc34)C2)n1 (centres unmarked) [CBK304037] . Reported viability at 28.5 h, 10 µM?
71.8

Item under review: CCOc1ccc(-c2nc(CC(=O)O)cs2)cc1 [CBK295300] . Reported viability at 28.5 h, 10 µM?
87.7

Item under review: N#Cc1ccc(-c2cnc(N)c(-c3ccccc3Cl)n2)cc1 [CBK113660] . Reported viability at 28.5 h, 10 µM?
88.5

Item under review: CCOC(=O)CSC/C(=N/Nc1ccccc1)c1cccs1 [CBK006956] . Reported viability at 28.5 h, 10 µM?
102

Item under review: CN(C)C(=O)c1cccc(CNc2ncnc3c2cnn3CCC#N)c1 [CBK305955] . Reported viability at 28.5 h, 10 µM?
88.3

Item under review: COc1cc(C=CC(=O)O)ccc1OCC(=O)N1CCN(CC(=O)NC(C)(C)C)CC1 [CBK296987] . Reported viability at 28.5 h, 10 µM?
114

Item under review: C=C(C)CN1CCN(Cc2cnn(C3CCCCC3)c2)CC1 [CBK282828] . Reported viability at 28.5 h, 10 µM?
98.9

Item under review: CCN(CC)CCCNC(=O)N1CCCCC1CO (centres unmarked) [CBK155982] . Reported viability at 28.5 h, 10 µM?
97.9

Item under review: COc1ccc(OCC(F)(F)F)c(C(=O)N2CCSCC2)c1 [CBK005950] . Reported viability at 28.5 h, 10 µM?
83.7

Item under review: O=C1c2ccccc2C(=O)N1c1ccc2nc(SCc3nc4ccccc4[nH]3)sc2c1 [CBK263368] . Reported viability at 28.5 h, 10 µM?
95

Item under review: Cc1noc(C)c1C(=O)N1CCn2cc(C(F)(F)F)nc2C1 [CBK282431] . Reported viability at 28.5 h, 10 µM?
90.2

Item under review: O=C(O)COc1ccc(S(=O)(=O)Nc2ccc(F)cc2)cc1 [CBK268442] . Reported viability at 28.5 h, 10 µM?
105

Item under review: O=C(O)CCn1c2ccc(Br)cc2c2cc(Br)ccc21 [CBK262551] . Reported viability at 28.5 h, 10 µM?
83.9

Item under review: COc1nccnc1OC1CCN(Cc2ccccc2)CC1 [CBK084238] . Reported viability at 28.5 h, 10 µM?
103

Item under review: COc1cc(CNC2CCCCCC2)c([N+](=O)[O-])cc1OC [CBK262194] . Reported viability at 28.5 h, 10 µM?
96.4

Item under review: C[C@@H]1[C@H]2C[C@@H](C[C@H]1NC1=NC(=O)C(CC(=O)O)S1)C2(C)C (some centres unmarked) [CBK059514] . Reported viability at 28.5 h, 10 µM?
93.8

Item under review: O=C(Nc1ccc(S(=O)(=O)NCCc2ccccc2)cc1)c1ccc2c(c1)OCO2 [CBK265591] . Reported viability at 28.5 h, 10 µM?
108

Item under review: O=S(=O)(c1ccc(-c2csc(-c3cccnc3)n2)cc1)N1CCCCCC1 [CBK265502] . Reported viability at 28.5 h, 10 µM?
106

Item under review: O=S(=O)(c1ccc(Br)s1)N1CCC(Cc2ccccc2)CC1 [CBK043580] . Reported viability at 28.5 h, 10 µM?
89.7

Item under review: O=C(O)CC(NS(=O)(=O)c1cccc([N+](=O)[O-])c1)c1ccccc1 (centres unmarked) [CBK262641] . Reported viability at 28.5 h, 10 µM?
96.4

Item under review: CC(=O)Nc1c[nH]nc1C1CCCN(c2cccc(F)c2C#N)C1 (centres unmarked) [CBK306401] . Reported viability at 28.5 h, 10 µM?
97.2

Item under review: O=C1CSC2(C(=O)Nc3ccccc32)N1c1ccc2ccccc2c1 (centres unmarked) [CBK093461] . Reported viability at 28.5 h, 10 µM?
106

Item under review: O=C(Cc1ccc([N+](=O)[O-])cc1)N/N=C/c1ccc(O)cc1 [CBK262152] . Reported viability at 28.5 h, 10 µM?
84.5

Item under review: O=C(C1CCCN(S(=O)(=O)c2ccc(F)cc2)C1)N(Cc1ccccc1)Cc1ccccc1 (centres unmarked) [CBK267652] . Reported viability at 28.5 h, 10 µM?
108

Item under review: COCCNC(=O)c1nnn(-c2ccc(Br)cc2)c1C [CBK300524] . Reported viability at 28.5 h, 10 µM?
93.3

Item under review: C[C@H](c1ccccc1)n1c(=O)[nH]c2ncc(-c3cncc4ccccc34)nc21 [CBK064709] . Reported viability at 28.5 h, 10 µM?
90.4

Item under review: COc1cc(Nc2cc(-c3ccc(NC(C)=O)cc3)ncn2)cc(OC)c1OC [CBK090710] . Reported viability at 28.5 h, 10 µM?
103

Item under review: CC(C)c1ccc(S(=O)(=O)Nc2ccc3[nH]c(C(F)(F)F)nc3c2)cc1 [CBK044470] . Reported viability at 28.5 h, 10 µM?
90.3

Item under review: CN(C)CCN1CCN(c2nc(-c3cccc(C(N)=O)c3)cnc2N)CC1 [CBK063537] . Reported viability at 28.5 h, 10 µM?
97.8

Item under review: O=C(O)c1ccn(-c2ccc(NS(=O)(=O)c3ccc(N4CCCC4=O)cc3)cc2)n1 [CBK298327] . Reported viability at 28.5 h, 10 µM?
102

Item under review: Cc1cc(SCC2=NNC(=O)C2)c(Cl)cc1Cl [CBK067769] . Reported viability at 28.5 h, 10 µM?
92.8

Item under review: O=C(Cc1ccc(-c2ccccc2)cc1)NCc1nnc(-c2cccs2)o1 [CBK286295] . Reported viability at 28.5 h, 10 µM?
94.3

Item under review: CC(C)(C)C(=O)NCc1ccc(C(=O)CSc2n[nH]c(=O)n2C2CC2)s1 [CBK295653] . Reported viability at 28.5 h, 10 µM?
111

Item under review: O=C(Cn1ncn2c(cc3ccsc32)c1=O)N1CCCCCC1 [CBK284202] . Reported viability at 28.5 h, 10 µM?
81.7

Item under review: COc1ccccc1N1CCN(c2ccc([N+](=O)[O-])cc2C(=O)O)CC1 [CBK286692] . Reported viability at 28.5 h, 10 µM?
96.3

Item under review: COc1ccc(CN[C@H]2[C@H](O)[C@@H](N3CCCC3)[C@@H]3OC[C@H]2O3)cc1 [CBK288827] . Reported viability at 28.5 h, 10 µM?
88.6

Item under review: CN1CCN(C(=O)c2ccc(-c3ccc4c(c3)OCO4)nc2NCc2cccnc2)CC1 [CBK076110] . Reported viability at 28.5 h, 10 µM?
90.7

Item under review: CC(C)(C)OC(=O)NCC1(CC(=O)O)CCCCC1 [CBK287030] . Reported viability at 28.5 h, 10 µM?
93
